Biological target: T1, human serum albumin (human, UniProt P02768 25-609)
T1 construct: also called HSA
T1 sequence (P02768 25-609 limits assumed): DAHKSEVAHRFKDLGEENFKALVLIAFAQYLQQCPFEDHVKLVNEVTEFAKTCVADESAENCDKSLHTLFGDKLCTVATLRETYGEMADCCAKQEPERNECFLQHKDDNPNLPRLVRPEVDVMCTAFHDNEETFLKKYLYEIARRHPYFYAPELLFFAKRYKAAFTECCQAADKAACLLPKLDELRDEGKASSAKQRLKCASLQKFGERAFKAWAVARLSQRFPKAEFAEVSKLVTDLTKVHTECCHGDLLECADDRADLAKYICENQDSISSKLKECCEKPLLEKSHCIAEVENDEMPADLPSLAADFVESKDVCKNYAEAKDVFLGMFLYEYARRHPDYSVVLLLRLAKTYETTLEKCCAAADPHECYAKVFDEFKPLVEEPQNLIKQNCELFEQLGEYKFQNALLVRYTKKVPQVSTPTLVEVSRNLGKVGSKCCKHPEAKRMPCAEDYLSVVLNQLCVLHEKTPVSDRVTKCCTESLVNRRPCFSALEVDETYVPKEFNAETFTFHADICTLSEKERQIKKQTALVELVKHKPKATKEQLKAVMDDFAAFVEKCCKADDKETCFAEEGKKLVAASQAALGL
Assay: phage ELISA on HSA, purified phage, 1/3 dilution series
Assay Metric: phage number, +Heat (phage)

# Binder, Assay Metric, Unit Annotation, Readout Number
data = [
    ("anti-HSA VH clone #1 (other, From library 4G (human VH3, DP47 germline gene + JH4 segment)) VH: EVQLLESGGGLVQPGGSLRLSCAASGFTFDLYDMSWVRQAPGKGLEWVSSIVNSGVRTYYADSVKGRFTISRDNSKNTLYLQMNSLRAEDTAVYYCAKLNQSYHWDFDYWGQGTLVTVSS", "phage number, +Heat", "phage", "1e+10"),
    ("anti-HSA VH clone #10 (other, As clone #1; the one clone recovered with the heat step) VH: EVQLLESGGGLVQPGGSLRLSCAASGFTFDEYNMSWVRQAPGKGLEWVSTILPHGDRTYYADSVKGRFTISRDNSKNTLYLQMNSLRAEDTAVYYCAKQDPLYRFDYWGQGTLVTVSS", "phage number, +Heat", "phage", "1e+10"),
    ("anti-HSA VH clone #2 (other, As clone #1) VH: EVQLLESGGGLVQPGGSLRLSCAASGFTFSDYRMSWVRQAPGKGLEWVSTIISNGKFTYYADSVKGRFTISRDNSKNTLYLQMNSLRAEDTAVYYCAKQDWMYMFDYWGQGTLVTVSS", "phage number, +Heat", "phage", "1e+10"),
    ("anti-HSA VH clone #4 (other, As clone #1) VH: EVQLLESGGGLVQPGGSLRLSCAASGFTFYDYNMSWVRQAPGKGLEWVSTITHTGGVTYYADSVKGRFTISRDNSKNTLYLQMNSLRAEDTAVYYCAKQNPSYQFDYWGQGTLVTVSS", "phage number, +Heat", "phage", "1e+10"),
    ("anti-HSA VH clone #6 (other, As clone #1) VH: EVQLLESGGGLVQPGGSLRLSCAASGFTFHRYSMSWVRQAPGKGLEWVSTILPGGDVTYYADSVKGRFTISRDNSKNTLYLQMNSLRAEDTAVYYCAKQTPDYMFDYWGQGTLVTVSS", "phage number, +Heat", "phage", "9.75e+09"),
    ("anti-HSA VH clone #3 (other, As clone #1) VH: EVQLLESGGGLVQPGGSLRLSCAASGFTFSKYWMSWVRQAPGKGLEWVSSIDFMGPHTYYADSVKGRFTISRDNSKNTLYLQMNSLRAEDTAVYYCAKGRTSMLPMKGKFDYWGQGTLVTVSS", "phage number, +Heat", "phage", "1e+10"),
]
